TARGET_UNDER_TEST: T1, FPR1 (UniProt P21462 1-350, limits assumed)
T1 sequence (looked up): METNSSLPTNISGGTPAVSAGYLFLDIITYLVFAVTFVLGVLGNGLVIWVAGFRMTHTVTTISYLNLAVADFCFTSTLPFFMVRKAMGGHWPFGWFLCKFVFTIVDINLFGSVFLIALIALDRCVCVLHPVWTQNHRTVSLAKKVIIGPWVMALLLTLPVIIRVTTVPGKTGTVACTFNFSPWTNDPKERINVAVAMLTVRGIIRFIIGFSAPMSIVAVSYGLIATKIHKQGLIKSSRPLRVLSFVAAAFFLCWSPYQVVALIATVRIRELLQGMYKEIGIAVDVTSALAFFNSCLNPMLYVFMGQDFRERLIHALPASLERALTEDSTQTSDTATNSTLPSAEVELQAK
ASSAY_REMARKS: cell-based or functional assay
Kindly state EC50 for [Ca2+] for each of the entries shown.

1. WRYWYM (HELM PEPTIDE1{W.R.Y.W.Y.[dM].[am]}$$$$V2.0; N-terminus assumed; SMILES CSCC[C@@H](NC(=O)[C@H](Cc1ccc(O)cc1)NC(=O)[C@H](Cc1c[nH]c2ccccc12)NC(=O)[C@H](Cc1ccc(O)cc1)NC(=O)[C@H](CCCNC(=N)N)NC(=O)[C@@H](N)Cc1c[nH]c2ccccc12)C(N)=O) [peptide of SEQ ID NO 79] | > 10 µM
2. MKYWYM (HELM PEPTIDE1{M.K.Y.W.Y.[dM].[am]}$$$$V2.0; N-terminus assumed; SMILES CSCC[C@H](N)C(=O)N[C@@H](CCCCN)C(=O)N[C@@H](Cc1ccc(O)cc1)C(=O)N[C@@H](Cc1c[nH]c2ccccc12)C(=O)N[C@@H](Cc1ccc(O)cc1)C(=O)N[C@H](CCSC)C(N)=O) [peptide of SEQ ID NO 89] | > 10 µM
3. RMRYWYM (HELM PEPTIDE1{[ac].R.M.R.Y.W.Y.[dM].[am]}$$$$V2.0; SMILES CSCC[C@H](NC(=O)[C@H](CCCNC(=N)N)NC(C)=O)C(=O)N[C@@H](CCCNC(=N)N)C(=O)N[C@@H](Cc1ccc(O)cc1)C(=O)N[C@@H](Cc1c[nH]c2ccccc12)C(=O)N[C@@H](Cc1ccc(O)cc1)C(=O)N[C@H](CCSC)C(N)=O) [peptide of SEQ ID NO 82] | > 10 µM

Value sought for every listed binder: EC50 for [Ca2+].
1. IKYKPM (HELM PEPTIDE1{[ac].I.K.Y.K.P.[dM].[am]}$$$$V2.0; SMILES CC[C@H](C)[C@H](NC(C)=O)C(=O)N[C@@H](CCCCN)C(=O)N[C@@H](Cc1ccc(O)cc1)C(=O)N[C@@H](CCCCN)C(=O)N1CCC[C@H]1C(=O)N[C@H](CCSC)C(N)=O) [peptide of SEQ ID NO 143]
2. PMRYKPM (HELM PEPTIDE1{[CCCC(=O)[*:2]].P.M.R.Y.K.P.[dM].[am]}$$$$V2.0; SMILES CCCC(=O)N1CCC[C@H]1C(=O)N[C@@H](CCSC)C(=O)N[C@@H](CCCNC(=N)N)C(=O)N[C@@H](Cc1ccc(O)cc1)C(=O)N[C@@H](CCCCN)C(=O)N1CCC[C@H]1C(=O)N[C@H](CCSC)C(N)=O) [peptide of SEQ ID NO 64]

Result block:
["> 10 µM", "> 10 µM"]
